# protocol_notes: yeast display, Sf9 membrane polyspecificity reagent, FACS + sequencing; frameworks hold sequencing errors
quantity: polyreactivity (PSR sort gate)

Some solved cases for reference:
sequence	measured
QVQLVESGGGLVQAGGSLRLSCAASGSIFWLYAMGWYRQAPGKERELVAAINWSTGRTYYADSVKGRFTISRDNAKNTVYLQMNSLKPEDTAVYYCAADLNWWFDYSSPDEMYYWGQGTQVNVSS	high polyreactivity
QVQLVESGGGLVQAGGSLRLSCAASGSTIEDYAMGWYRQAPGKERELVAAITSGDSTNYADSVKGRFTISRDNAKNTVYLQMNSLKPEDTAVYYCAARLRYSFWYWDDYWGQGTQVTVSS	high polyreactivity
QVQLVESGGGLVQAGGSLRLSCAASGFNFDGYAMGWYRQAPGKERELVAAITYSGGSTYYADSVKGRFTISRDNAKNTVYLQMNSLKPEDTAVYYCAAESYVYGGSDYDYWGQGTQVTVSS	low polyreactivity
QVQLVESGGGLVQAGGSLRLSCAASGFIFATYAMGWYRQAPGKERELVAAINRGGSTYYADSVKGRFTISRDNAKNTVYLQMNSLKPEDTAVYYCAAAKRYPTSTWYGYWGQGTQVTVSS	high polyreactivity
QDQLVQSGGGLVQAGGSLRLSCDASGGMFDSNAMGRYRQPPGKERELVAAISDSGGSTYYADSVKGRFTISRDNAKNTVYLQMNSLKPEDTAVYYCAGDSDYHFVNYRFGMDYWGQGTQVTVSS	low polyreactivity
QVQLVESGGGLVQAGGSLRLSCAASGRIFYSYAMGWYRQAPGKERELDAAITRGGSTSYADSVKGRFTISRDNAKNTVYLQMNSLKPEDTAVYYCATRQFYSYWKYYYWGQGTQVTVSS	high polyreactivity
QVQHVESGGGLLQAGGSLRLTCAASGSTFGTYAMGWYRQAPGKERELVATISIGGITYYADSVKGRFTISRDNAKNTVYLQLNSLKPEDTAVYYCAKDVNDATSRSDPSGDDYWGQGTQVTVSS	low polyreactivity
QDQLVESAAGLVQAGGSLRLSCAASGSTFATYAMGWYRKAPGKERELVAAITASGGRTFYADSVKGRFTLSRDNAKNTVYLQMNSLKPEDPAVYYCAKRGDYVPYTFDYWGQGTQVTVSS	high polyreactivity

Prompt line: Identify measured polyreactivity (PSR sort gate) associated with "QVQLVESGGGLVQAGGSLRLICAASGSIFKYYAMGLYRQAPGKERDLVAANRWSGGSTYYADSVKGRFTISRDNAKNTVYLQMNRLKPEDTAVYYCAAEYFNQNTRQGYDYWGQGTQVTVSS"
Response line: low polyreactivity

Prompt line: Assign polyreactivity (PSR sort gate) to the following record: "QVQLVESGGGLVQAGGSLRISCAASGRNYSYYAMGWYREAPGKERELVAAITYSGGSTYYADSVKGRFTITRDNAKNTVYLQMNSLKPEDTAVYYCAAGLSIYYWGQGTQVTVSS"
Response line: low polyreactivity

Prompt line: Please give the documented polyreactivity (PSR sort gate) of "QVQLVESGGGLVQAGGSLRLSCAASGSTFGKYAMGWYRQAPGKERELVAAITESDSSTYYADSVKGRFTLSRDNAKNTVYLQMNSLKPEDTAVDYCAADSLYSYPWSTYFYGGDYWGQGTQVTVSS"
Response line: low polyreactivity

Prompt line: Note polyreactivity (PSR sort gate) for the sequence shown: "QVQLVESGGGLVQAGGSLRLSCAASGFTLYYYTMGWYRQAPGKERELVAAITSGGDTYYADSVKGRFTISRDNAKNTVYLQMNSLKPEDTAVYYCDAKKKYHYVASYKRFEYWGQGTQVTVSS"
Response line: low polyreactivity

Prompt line: Respond only with polyreactivity (PSR sort gate) recorded for "QVQLVESGGGIVQAGGSLRLSCAASGSTIRYYAMGWYRQAPGKERELVAAITYSGTRTYYADSVKGRFTISRDNAKTTVYLQMNSLKPEDTAVYYCNAVAKHRGVGIYTPYDYWGQGTQVTVSS"
Response line: high polyreactivity
